- Experimental conditions: 353.2 K; 100.9 kPa; Liquid; Cone and plate viscometry
Outcome measure: viscosity (mPa·s)
Numbers only, in mPa·s.

Take a look at these entries with their results.
Smiles record	Value unit	Recorded number
CC(C)n1cc[n+](C)c1.O=S(=O)([N-]S(=O)(=O)C(F)(F)C(F)(F)F)C(F)(F)C(F)(F)F	mPa·s	14.4
CC(C)[n+]1ccn(C)c1.O=S(=O)([N-]S(=O)(=O)C(F)(F)F)C(F)(F)F	mPa·s	8.9
C[n+]1ccn(C(C)(C)C)c1.O=S(=O)([N-]S(=O)(=O)C(F)(F)F)C(F)(F)F	mPa·s	14.5

Consider now this further compound.
Problem: Which viscosity value is on record for `C[n+]1ccn(C(C)(C)C)c1.O=S(=O)([N-]S(=O)(=O)C(F)(F)C(F)(F)F)C(F)(F)C(F)(F)F` ?
Result: 23.8
